conditions: in n-butyl acetate, 278.15 K

Test Smiles: CC(=O)Nc1ccc(OC(=O)c2ccccc2OC(C)=O)cc1
solubility (mole fraction): 0.000482
